- Assay remarks: Solubility in water
- Assay type: physicochemical
- Measurement parameters: of water, pH=4.8
Measurement kind: solubility

# input Record request: solubility value, item CC1=C(C(=O)O)N2C(=O)[C@@H](NC(=O)[C@H](N)C3=CCC=CC3)[C@H]2SC1
# output 4000 µg/mL

Data provenance is patent US6821959B1.
